Where do the numbers come from? From PubChem BioAssay.

Assay: probe aLAP1 signal on lysate-treated microarray – cell lysate, small-molecule microarray, COS7 lysate, primary screen (AID 1124);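 note: lysate comes from COS7 cells expressing LAP1 and is applied at 0.3 µg/mL; score merges spot fluorescence near 667 nm with signal-to-noise over triplicate slides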
Details: probe aLAP1, fluorescence, higher = more signal
Categories are defined by ranges of composite z-score, namely low end = under -0.05, middle = from -0.05 up to 0.4, high end = 0.4 and over

Solved cases (6 shown):
CCOC(=O)C=Cc1cccc(C)c1O ... high end
COC(=O)c1c(CC[C@@H](CO)NC(=O)N2CCC[C@H]2Cn2cc(C3(O)CCCCC3)nn2)oc(C(C)=O)c1C(=O)OC ... high end
CCCCN1CC=CC23O[C@@H]4/C=C\CCC(C)OC(=O)C4[C@H]2C(=O)N(CCCO)[C@@H]3C1=O (some centres undefined) ... middle
COc1ccc([Si](C)(C)[C@@H]2[C@@H](CCO)O[C@]3(C(=O)N(Cc4ccccc4)c4ccc(N5CCOC5=O)cc43)[C@H]2C)cc1 ... middle
COCCOC(=O)N1C(=O)[C@@]2(c3cc(C#CCCO)ccc31)[C@H](C(=O)Nc1nc3ccccc3s1)[C@H]1C(=O)O[C@H](c3ccccc3)[C@H](c3ccccc3)N1[C@@H]2c1ccc(O)cc1 ... high end
CCCCCN1CC=CC23O[C@@H]4/C=C\CCCOC(=O)C4[C@H]2C(=O)N(C(C)CO)[C@@H]3C1=O (some centres undefined) ... middle

Query :: Assign a bin to CCOC(=O)C[C@H]1[C@H](OC(=O)Cc2ccc3c(c2)OCO3)[C@@H](NC(=O)c2ccc3ccccc3n2)c2cc(OCCCO)ccc2N1C(=O)c1ccc2ccccc2n1
Result :: middle

Query :: Class (by measured composite z-score) for COc1cc(NN2C(C(O)c3cc(OC)c(OC)c(OC)c3)C=CC3C(=O)N(C)C(=O)C32)cc(OC)c1OC (centres undefined)
Result :: middle

Query :: Quick check: band for CC(C)=C1C(=O)C(c2ccccc2)=C2CN3C(=O)N(CCc4ccccc4)C(=O)[C@]3(Cc3ccc(C(F)(F)F)cc3)[C@H]21
Result :: middle

Query :: Band for the recorded composite z-score of O=C1CS(=O)(=O)C(c2cccc([N+](=O)[O-])c2)N1c1ccccc1 (centres undefined) ?
Result :: high end

====

Test system: Chordin-like protein 2 (CHRDL2)
Test: compounds binding chordin-like 2 – biochemical, small-molecule microarray, 635 nm fluorescence, primary screen (AID 1126);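 note: printed compound slides probed with Chrdl2 protein at 4 µg/mL for 1 h at 4 C; score merges 667 nm emission intensity with signal to noise over three replicate slides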
Conditions: fluorescence 635 nm, higher = more signal
readout-label: composite z-score
Lab note: record the figure alone, no unit after it.

Recorded composite z-score, per entry:
NC(=O)[C@@]1(Cc2ccccc2)COC(c2ccc(OCCCO)cc2)=N1 ... -0.165
CC(C)[Si](C#CCCCC#N)(O[C@H](c1ccccc1)c1cn(Cc2ccccc2)nn1)C(C)C ... 0.568
[N-]=[N+]=Nc1ccccc1C[C@]1(C(=O)NCCN2CCOCC2)COC(c2ccc(OCCCO)cc2)=N1 ... 0.376
O=C1O[C@@H](c2ccccc2)[C@@H](c2ccccc2)N2[C@@H](c3ccc(O)cc3)[C@]3(C(=O)Nc4ccc(C#CCCO)cc43)[C@@H](C(=O)N3CCN(c4ncccn4)CC3)[C@H]12 ... 1.14
[N-]=[N+]=NCc1ccccc1[C@H]1OC(c2ccc(OCCCO)cc2)=N[C@@]1(Cc1ccccc1N=[N+]=[N-])C(=O)NCC(O)CO (stereo not given in full) ... -0.603
CCOC(=O)C1=CC[C@@H](c2ccccc2F)N(S(=O)(=O)c2ccc(C)cc2)[C@H]1c1ccccc1 ... 0.0943
CCCC=C(CCC)[C@@H](NS(=O)(=O)c1ccc(C(F)(F)F)cc1)c1ccccc1 ... -0.732
C=CCN1C(=O)[C@]2(CCC(=O)OC(C)(C)C)N=C(c3ccc(OCCCO)cc3)O[C@@H]2c2ccccc21 ... 0.281
COc1ccc([Si](C)(C)[C@H]2[C@H](CC(=O)N(CCO)Cc3ccccc3)O[C@@]3(C(=O)N(C)c4c(Br)cc(C)cc43)[C@@H]2C)cc1 ... 1.27
COc1ccc([Si](C)(C)[C@@H]2[C@@H](CC(=O)N3CCC[C@H]3CO)O[C@]3(C(=O)N(Cc4cccc(N5C(=O)COc6ccccc65)c4)c4ccccc43)[C@H]2C)cc1 ... 0.291

The reported value for CC(C)=C1C(=O)C(c2ccccc2)=C2CN3C(=O)N(CCc4ccccc4)C(=O)[C@]3(Cc3ccc(C(F)(F)F)cc3)[C@H]21 in terms of composite z-score is -2.09

Reported composite z-score for COC(=O)[C@@]1(Cc2ccc(OC)cc2)[C@H]2c3cc(C(=O)N4CCCC4)n(CCO)c3C[C@H]2CN1C(=O)c1ccccc1 was -0.0307

// sample COC(=O)[C@@H]1N=C(c2ccc(OCCCO)cc2)O[C@@H]1c1ccccc1 , its composite z-score was -1.89

Briefly, composite z-score measured for CCOC(=O)C[C@H]1[C@H](OC(=O)c2ccc(C(=O)c3ccccc3)cc2)[C@@H](NC(=O)c2ccc3ccccc3n2)c2cc(OCCCO)ccc2N1C(=O)Cc1ccc(OC)cc1 : -0.384

Measured composite z-score of CCOC(=O)C1=C[C@@H](C(C)(C)C)N(S(=O)(=O)c2ccc(C)cc2)[C@H]1c1cccc2ccccc12 : -0.516
